# reported Ratio Ki; entries follow
# Organism: Homo sapiens
# Protocol: Selectivity ratio of Ki for human prostanoid EP2 receptor to Ki for human prostanoid EP4

{"Compound string": "C[C@H](NC(=O)c1cccc2c1N(Cc1cccc(Cl)c1)CC2)c1ccc(C(=O)O)cc1", "Value relation sign": "=", "Ratio Ki": 595}
{"Compound string": "C[C@H](NC(=O)c1cc(F)cc2c1N(Cc1ccc(C(F)(F)F)cc1)CC2)c1ccc(C(=O)O)cc1", "Value relation sign": ">", "Ratio Ki": 1000}
{"Compound string": "C[C@H](NC(=O)c1cc(C(F)(F)F)cc2c1N(Cc1ccc(C(F)(F)F)cc1)CC2)c1ccc(C(=O)O)cc1", "Value relation sign": "=", "Ratio Ki": 153}
{"Compound string": "C[C@H](NC(=O)c1cccc2ccn(Cc3cccc(Cl)c3)c12)c1ccc(C(=O)O)cc1", "Value relation sign": ">", "Ratio Ki": 1000}
{"Compound string": "C[C@H](NC(=O)c1cccc2c1N(Cc1ccc(C(F)(F)F)cc1)CC2)c1ccc(-c2nn[nH]n2)cc1", "Value relation sign": ">", "Ratio Ki": 1000}
{"Compound string": "C[C@H](NC(=O)c1cccc2c1N(Cc1ccc(C(=O)O)cc1)CC2)c1ccc(C(=O)O)cc1", "Value relation sign": ">", "Ratio Ki": 179}
{"Compound string": "C[C@H](NC(=O)c1cccc2c1N(Cc1cc(Br)cc(Br)c1)CC2)c1ccc(C(=O)O)cc1", "Value relation sign": "=", "Ratio Ki": 151}
{"Compound string": "C[C@H](NC(=O)c1cccc2c1N(Cc1ccc(-c3ccccc3)cc1)CC2)c1ccc(C(=O)O)cc1", "Value relation sign": "=", "Ratio Ki": 139}

====

# reported Ratio Ki; entries follow
# Species on record: Homo sapiens
# Protocol: Selectivity ratio of Ki for human prostanoid EP2 receptor to Ki for human prostanoid EP4

{"Compound string": "C[C@H](NC(=O)c1cccc2c1N(Cc1ccc(C#N)cc1)CC2)c1ccc(C(=O)O)cc1", "Value relation sign": "=", "Ratio Ki": 603}
{"Compound string": "C[C@H](NC(=O)c1cccc2c1N(Cc1cccc(C(F)(F)F)c1)CC2)c1ccc(C(=O)O)cc1", "Value relation sign": ">", "Ratio Ki": 1000}
{"Compound string": "C[C@H](NC(=O)c1cccc2c1N(Cc1cccc(C(N)=O)c1)CC2)c1ccc(C(=O)O)cc1", "Value relation sign": "=", "Ratio Ki": 582}
{"Compound string": "C[C@H](NC(=O)c1cc(Cl)cc2c1N(Cc1ccc(C(F)(F)F)cc1)CC2)c1ccc(C(=O)O)cc1", "Value relation sign": "=", "Ratio Ki": 647}
{"Compound string": "C[C@H](NC(=O)c1cccc2c1N(Cc1cccnc1)CC2)c1ccc(C(=O)O)cc1", "Value relation sign": ">", "Ratio Ki": 127}

====

# Organism: Homo sapiens
# Protocol: Selectivity ratio of Ki for human prostanoid EP2 receptor to Ki for human prostanoid EP4
Observation type: Ratio Ki

{"Compound string": "C[C@H](NC(=O)c1cccc2c1N(Cc1ccc(Cl)c(Cl)c1)CC2)c1ccc(C(=O)O)cc1", "Value relation sign": "=", "Test result": 338}
{"Compound string": "C[C@H](NC(=O)c1cccc2c1N(Cc1ccc(F)cc1)CC2)c1ccc(C(=O)O)cc1", "Value relation sign": "=", "Test result": 488}
{"Compound string": "C[C@H](NC(=O)c1cccc2c1N(Cc1ccc(Cl)cc1)CC2)c1ccc(C(=O)O)cc1", "Value relation sign": ">", "Test result": 1000}
{"Compound string": "C[C@H](NC(=O)c1cccc2c1N(Cc1cccc(C#N)c1)CC2)c1ccc(C(=O)O)cc1", "Value relation sign": "=", "Test result": 582}
{"Compound string": "C[C@H](NC(=O)c1cccc2c1N(Cc1ccc(C(F)(F)F)cc1Br)CC2)c1ccc(C(=O)O)cc1", "Value relation sign": "=", "Test result": 795}
{"Compound string": "C[C@H](NC(=O)c1cccc2c1N(Cc1ccc(C(F)(F)F)cc1)CC2)c1ccc(C(=O)O)cc1", "Value relation sign": ">", "Test result": 1000}

====

# reported Ratio Ki; entries follow
# Organism: Homo sapiens
# Protocol: Selectivity ratio of Ki for human prostanoid IP receptor to Ki for human prostanoid EP4

{"Compound string": "C[C@H](NC(=O)c1cccc2c1N(Cc1ccc(Cl)cc1)CC2)c1ccc(C(=O)O)cc1", "Ratio Ki": "> 1000"}
{"Compound string": "C[C@H](NC(=O)c1cc(F)cc2c1N(Cc1ccc(C(F)(F)F)cc1)CC2)c1ccc(C(=O)O)cc1", "Ratio Ki": "> 1000"}
{"Compound string": "C[C@H](NC(=O)c1cccc2c1N(Cc1ccc(OC(F)(F)F)cc1)CC2)c1ccc(C(=O)O)cc1", "Ratio Ki": "> 1000"}
{"Compound string": "C[C@H](NC(=O)c1cccc2c1N(Cc1cccnc1)CC2)c1ccc(C(=O)O)cc1", "Ratio Ki": "> 1000"}
{"Compound string": "C[C@H](NC(=O)c1cccc2c1N(Cc1cc(Br)cc(Br)c1)CC2)c1ccc(C(=O)O)cc1", "Ratio Ki": "> 1000"}
{"Compound string": "C[C@H](NC(=O)c1cccc2c1N(Cc1cccc(C(F)(F)F)c1)CC2)c1ccc(C(=O)O)cc1", "Ratio Ki": "> 1000"}
{"Compound string": "C[C@H](NC(=O)c1cccc2c1N(Cc1ccc(C(F)(F)F)cc1)CC2)c1ccc(-c2nn[nH]n2)cc1", "Ratio Ki": "> 1000"}
{"Compound string": "C[C@H](NC(=O)c1cccc2c1N(Cc1cccc(C(N)=O)c1)CC2)c1ccc(C(=O)O)cc1", "Ratio Ki": "> 1000"}
{"Compound string": "C[C@H](NC(=O)c1cccc2c1N(Cc1ccc(C(=O)O)cc1)CC2)c1ccc(C(=O)O)cc1", "Ratio Ki": "> 1000"}
{"Compound string": "C[C@H](NC(=O)c1cccc2c1N(Cc1cccc(Cl)c1)CC2)c1ccc(C(=O)O)cc1", "Ratio Ki": "> 1000"}
{"Compound string": "C[C@H](NC(=O)c1cccc2c1N(Cc1cccc(C#N)c1)CC2)c1ccc(C(=O)O)cc1", "Ratio Ki": "> 1000"}
{"Compound string": "C[C@H](NC(=O)c1cccc2c1N(Cc1ccc(Cl)c(Cl)c1)CC2)c1ccc(C(=O)O)cc1", "Ratio Ki": "> 1000"}
{"Compound string": "C[C@H](NC(=O)c1cc(C(F)(F)F)cc2c1N(Cc1ccc(C(F)(F)F)cc1)CC2)c1ccc(C(=O)O)cc1", "Ratio Ki": "> 1000"}
{"Compound string": "Cc1ccc(CN2CCc3cccc(C(=O)N[C@@H](C)c4ccc(C(=O)O)cc4)c32)cc1", "Ratio Ki": "> 1000"}
{"Compound string": "C[C@H](NC(=O)c1cccc2c1N(Cc1ccc(F)cc1)CC2)c1ccc(C(=O)O)cc1", "Ratio Ki": "> 1000"}
{"Compound string": "C[C@H](NC(=O)c1cccc2c1N(Cc1ccc(C#N)cc1)CC2)c1ccc(C(=O)O)cc1", "Ratio Ki": "> 1000"}

====

# Species on record: Homo sapiens
# Protocol: Selectivity ratio of Ki for human prostanoid DP receptor to Ki for human prostanoid EP4

{"Compound string": "C[C@H](NC(=O)c1cccc2c1N(Cc1ccc(C(N)=O)cc1)CC2)c1ccc(C(=O)O)cc1", "Value relation sign": ">", "Ratio Ki": 1000}
{"Compound string": "C[C@H](NC(=O)c1cccc2c1N(Cc1ccc(Cl)c(Cl)c1)CC2)c1ccc(C(=O)O)cc1", "Value relation sign": "=", "Ratio Ki": 241}
{"Compound string": "C[C@H](NC(=O)c1cccc2c1N(Cc1ccc(C#N)cc1)CC2)c1ccc(C(=O)O)cc1", "Value relation sign": "=", "Ratio Ki": 916}
{"Compound string": "Cc1ccc(CN2CCc3cccc(C(=O)N[C@@H](C)c4ccc(C(=O)O)cc4)c32)cc1", "Value relation sign": ">", "Ratio Ki": 1000}
{"Compound string": "C[C@H](NC(=O)c1cccc2c1N(Cc1ccc(C(F)(F)F)cc1)CC2)c1ccc(-c2nn[nH]n2)cc1", "Value relation sign": ">", "Ratio Ki": 1000}
{"Compound string": "C[C@H](NC(=O)c1cccc2c1N(Cc1ccc(-c3ccccc3)cc1)CC2)c1ccc(C(=O)O)cc1", "Value relation sign": "=", "Ratio Ki": 57}
{"Compound string": "C[C@H](NC(=O)c1cccc2c1N(Cc1ccc(Cl)cc1Br)CC2)c1ccc(C(=O)O)cc1", "Value relation sign": "=", "Ratio Ki": 114}
{"Compound string": "C[C@H](NC(=O)c1cc(C(F)(F)F)cc2c1N(Cc1ccc(C(F)(F)F)cc1)CC2)c1ccc(C(=O)O)cc1", "Value relation sign": "=", "Ratio Ki": 504}
